As shown below, each of these molecules has a reported Population Membrane Permeable-Phenotype (%) value.
Test system: U2OS
Assay Method Text: Multiplex assay against U2OS
Type: toxicity, cell-based
Experimental Context: human, 24 h, 1 µM, compound concentration 1 uM, replicate 1
Note: unit % is implicit; provide only the numeric part.

Reference set, count: 2
C[C@@H]1C[C@H]2[C@@H]3CCC4=CC(=O)C=C[C@]4(C)[C@@]3(F)[C@@H](O)C[C@]2(C)[C@@]1(O)C(=O)CO [DEXAMETHASONE]	4
CN(C)CCCc1cc(C(=O)Nc2ccc(-c3ccncc3)cc2)ccc1O.Cl.Cl	5

Query: API: value(readout= Population Membrane Permeable-Phenotype (%), system= U2OS, query= CCCC(CCC)C(=O)O [VALPROIC ACID] )
Response: 9

Query: Quick one: Cc1ccc(/C(=C\CN2CCCC2)c2ccccn2)cc1 [TRIPROLIDINE]
Response: 4

Query: Could you do the same for CC(C)(C)c1ccc(S(=O)(=O)Nc2ccc(Cl)cc2C(=O)c2cc[n+]([O-])cc2)cc1 [VERCIRNON] , please?
Response: 8

Source: ChEMBL document CHEMBL5058577
